Molecular target: T1, EsCas13d, nuclease-dead (Eubacterium siraeum, UniProt B0MS50, R295A;H300A;R849A;H854A)
T1 sequence: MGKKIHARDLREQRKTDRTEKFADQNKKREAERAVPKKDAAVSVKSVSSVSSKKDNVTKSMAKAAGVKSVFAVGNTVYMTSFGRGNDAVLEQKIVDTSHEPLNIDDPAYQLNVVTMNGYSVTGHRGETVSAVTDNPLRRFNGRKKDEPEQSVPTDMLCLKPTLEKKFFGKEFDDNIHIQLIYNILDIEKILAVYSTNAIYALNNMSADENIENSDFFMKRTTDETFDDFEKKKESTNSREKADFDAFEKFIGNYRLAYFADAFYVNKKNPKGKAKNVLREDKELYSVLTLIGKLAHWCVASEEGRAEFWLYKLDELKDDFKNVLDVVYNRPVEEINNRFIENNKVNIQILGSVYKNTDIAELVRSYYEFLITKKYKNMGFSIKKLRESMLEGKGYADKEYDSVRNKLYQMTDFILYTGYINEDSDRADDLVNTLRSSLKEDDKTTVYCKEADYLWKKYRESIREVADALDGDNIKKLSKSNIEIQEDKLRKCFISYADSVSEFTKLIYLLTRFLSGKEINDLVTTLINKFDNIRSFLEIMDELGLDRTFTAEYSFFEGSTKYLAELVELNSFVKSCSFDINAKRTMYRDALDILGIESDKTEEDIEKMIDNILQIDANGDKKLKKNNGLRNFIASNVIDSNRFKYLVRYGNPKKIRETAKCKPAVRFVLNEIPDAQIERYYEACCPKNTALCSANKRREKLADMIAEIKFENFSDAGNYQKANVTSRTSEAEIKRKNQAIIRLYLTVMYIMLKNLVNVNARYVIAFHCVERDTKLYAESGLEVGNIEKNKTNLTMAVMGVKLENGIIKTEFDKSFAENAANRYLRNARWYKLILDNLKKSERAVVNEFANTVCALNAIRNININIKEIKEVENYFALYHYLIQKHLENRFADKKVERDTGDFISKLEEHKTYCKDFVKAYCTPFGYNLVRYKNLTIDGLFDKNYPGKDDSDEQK
Assay: crRNA (strand 1, pre-loaded); Mg2+; 40 mM Tris-HCl pH 7.5, 150 mM NaCl, 6 mM MgCl2, 1 mM DTT, 0.1% Tween-20, 0.2 mg/ml BSA; 25 C; 10 min per concentration, then washed
Conditions: tags: His6-TwinStrep-SUMO cleaved; N-terminal SNAP kept (SNAP-Surface 488); label: 3' end held by stalled T7 RNA polymerase
pKd: −log10 of the molar value.
So basically: pKd at 8 or higher? That is label 1. Lower than 8? That is label 0.

# bool: pKd of target 1 insU 3' of 16,insU 3' of 16 (mixed) RNA 1: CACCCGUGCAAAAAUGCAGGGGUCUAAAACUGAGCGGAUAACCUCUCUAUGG RNA 2: GGGAAUGGAUCCACAUCUACGAAUUCGUACCAUAGAUUGAGGUUAUCCGCUCACCGAGAUCGGAAGAGCACACGU >= 8
label 0

# bool: pKd of target 2 MT 5'PFS CUU 3'PFS UAG (mixed) RNA 1: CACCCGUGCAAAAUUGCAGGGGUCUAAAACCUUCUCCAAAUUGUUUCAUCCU RNA 2: GGGAAUGGAUCCACAUCUACGAAUUCCUUAGGAUGAAACAAUUUGGAGAAGUAGAGAUCGGAAGAGCACACGU >= 8
label 1

# bool: pKd of target 2 MT 5'PFS GAG 3'PFS AUU (mixed) RNA 1: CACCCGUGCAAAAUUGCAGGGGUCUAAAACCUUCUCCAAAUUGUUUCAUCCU RNA 2: GGGAAUGGAUCCACAUCUACGAAUUCGAGAGGAUGAAACAAUUUGGAGAAGAUUAGAUCGGAAGAGCACACGU >= 8
label 1

# bool: pKd of target 1 C4G,U11G (mixed) RNA 1: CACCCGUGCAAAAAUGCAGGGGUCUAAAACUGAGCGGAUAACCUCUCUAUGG RNA 2: GGGAAUGGAUCCACAUCUACGAAUUCGUACCAUAGAGAGGGUAUCCGGUCACCGAGAUCGGAAGAGCACACGU >= 8
label 1

# bool: pKd of target 2 MT 5'PFS GUU 3'PFS UCA (mixed) RNA 1: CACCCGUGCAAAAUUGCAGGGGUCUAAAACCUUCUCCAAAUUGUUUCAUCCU RNA 2: GGGAAUGGAUCCACAUCUACGAAUUCGUUAGGAUGAAACAAUUUGGAGAAGUCAAGAUCGGAAGAGCACACGU >= 8
label 0

# bool: pKd of target 1 insU 3' of 15,insC 3' of 12 (mixed) RNA 1: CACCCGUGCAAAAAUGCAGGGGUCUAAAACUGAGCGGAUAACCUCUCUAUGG RNA 2: GGGAAUGGAUCCACAUCUACGAAUUCGUACCAUAGAGUAGGCUUAUCCGCUCACCGAGAUCGGAAGAGCACACGU >= 8
label 0

Sourced from paper PMC10786891
